- System Under Test: Potassium channel subfamily K member 3 (Homo sapiens) (UniProt O14649)
- Sequence (O14649 whole entry, looked up): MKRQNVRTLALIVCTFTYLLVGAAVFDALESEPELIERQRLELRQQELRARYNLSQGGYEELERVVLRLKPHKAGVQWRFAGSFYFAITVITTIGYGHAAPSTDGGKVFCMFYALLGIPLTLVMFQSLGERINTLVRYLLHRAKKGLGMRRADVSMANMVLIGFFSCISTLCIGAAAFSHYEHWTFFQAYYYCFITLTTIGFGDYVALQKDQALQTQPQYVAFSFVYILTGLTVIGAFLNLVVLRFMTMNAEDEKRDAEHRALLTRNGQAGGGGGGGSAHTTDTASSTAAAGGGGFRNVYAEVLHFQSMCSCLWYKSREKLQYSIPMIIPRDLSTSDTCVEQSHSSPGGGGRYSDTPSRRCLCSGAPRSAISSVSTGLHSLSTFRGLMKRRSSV
- Assay Text: human KCNK3 channel inhibitors, primary screen, CHO cells, FluxOR thallium flux, B-score (AID 602410);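 as to B-score: more negative B-score means stronger inhibition of thallium flux through KCNK3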
- Condition Notes: FluxOR fluorescence, at 10 µM
Hit rate of the full screen: of about 340,000 compounds, about 2,800 (0.82%) were called active.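 The calls were made as follows: active = B-score under library mean minus 4 SD, starting fluorescence ratio at most library mean plus 5 SD; inactive = the rest.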 Many of the other results were omitted from the sample, so actives are more common in it than they were.
Result category, one only: active, inactive

Examples with answers:
> print(dat)
                                   molecule       cat
1         CCCOc1ccc2c3c(c(=O)oc2c1OCCC)CCC3    active
2  CCOc1c(Br)cc(/C=C2\C(=O)N(CCC#N)N=C2C)cc1OC  inactive

How was O=c1oc2c(CN3CCCCC3)c(O)ccc2c2c1CCCCC2 classified in this test?
inactive

Given COc1ccc2c3c(c(=O)oc2c1OCC(=O)C(C)(C)C)CCCC3 , state the outcome it received in this test.
inactive

Which outcome was entered for the molecule CCOC(=O)c1c(N)sc2c1CCCC2=O in this test?
inactive

What is the recorded call for this molecule in the test? Fc1ccc(Cn2nnnc2C(c2cccs2)N2CCCCCC2)cc1 (stereo unspecified)
inactive

* * *

- System Under Test: Potassium channel subfamily K member 3 (Homo sapiens) (UniProt O14649)
- Assay Text: human KCNK3 channel inhibitors, primary screen, CHO cells, FluxOR thallium flux, B-score (AID 602410)
- Condition Notes: FluxOR fluorescence, at 10 µM
Screen size: about 340,000 compounds; about 2,800 (0.82%) were called active.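 The calls were made as follows: active = B-score under library mean minus 4 SD, starting fluorescence ratio at most library mean plus 5 SD; inactive = the rest.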 What follows is part of a selection rich in actives, with near analogues and random picks from the rest.
Parameter call: string, one of yes for active, no for inactive

> print(dat)
                           structure.string  cat
1          Cc1ccc(F)c(NC(=O)CCOc2ccccc2C)c1   no
2   Cc1ccc(C(C)C)cc1OCC(=O)Nc1ccccc1N1CCCC1   no
3                Cc1nnc(C)c2c(C)n(N)c(C)c12   no
4            Cc1ccc(F)c(NC(=O)CCc2ccccc2)c1   no
5  COc1cc(C(=O)CCc2ccc3c(c2)OCO3)cc(OC)c1OC   no
6      O=C(CNCCC1=CCCCC1)Nc1ccccc1N1CCCCCC1  yes
7      Cc1ccc(CSc2nc3[nH]ncc3c(=O)[nH]2)cc1   no
8  O=C(Cc1ccc(S(=O)(=O)N2CCOCC2)s1)NCCC(c1ccccc1)c1ccccc1   no

Test call for this compound, please: CCn1ncc(Br)c1C(=O)Nc1cc(C)ccc1F
yes

What classification did C/C(CC(C)C)=N\Oc1nc(C)cc(C)n1 end up with in this test?
no

Write down the call the test reported for this compound. Item: O=C(Cc1ccc(S(=O)(=O)N2CCOCC2)s1)NCCOc1ccccc1F
no

// return assay outcome for CCCC(=O)Nc1ccccc1N1CCN(C(=O)c2ccccc2)CC1
no

* * *

- System Under Test: Potassium channel subfamily K member 3 (Homo sapiens) (UniProt O14649)
- Assay Text: human KCNK3 channel inhibitors, primary screen, CHO cells, FluxOR thallium flux, B-score (AID 602410)
- Condition Notes: FluxOR fluorescence, at 10 µM; hits give low values
The campaign covered roughly 340,000 compounds. About 2,800 (0.82%) were called active. Many of the other results were omitted from the sample, so actives are more common in it than they were.
Assay Readout: B-score

Guide cases for B-score, answers given:
> print(dat)
                                    molecule  assay.readout           value
 1  O=C(c1ccc(F)cc1)C1CCN(Cc2cn[nH]c2-c2ccccc2)CC1        B-score        inactive
 2  Cc1ccc(S(=O)(=O)N2CCN(CC(=O)N/N=C/c3ccc(Br)s3)CC2)cc1        B-score        inactive
 3        O=C(Nc1ccc(Cl)cn1)c1ccc2c(c1)OCCO2        B-score        inactive
 4  Cc1ccc(CN(C)Cc2cc(=O)oc3cc(C)c(Cl)cc23)cc1        B-score        inactive
 5      CC[n+]1cc(C)ccc1/C=C/c1ccc(N(C)C)cc1        B-score  -8.95 (active)
 6  O=C(Nc1cccc(S(=O)(=O)Nc2ccc(Cl)cc2)c1)c1ccc2c(c1)OCCO2        B-score  -9.14 (active)
 7              Cc1cc(Nc2cccc(F)c2)n2ncnc2n1        B-score        inactive
 8  CCOc1ccc(N(C)Cc2cc(=O)oc3ccc(OC)cc23)cc1        B-score        inactive
 9                     NC(=S)Nc1c(Cl)cccc1Cl        B-score        inactive
10   COCCCNC(=O)CCc1nc2cccnc2n1Cc1ccc(OC)cc1        B-score        inactive

State the measured B-score (Potassium channel subfamily K member 3 (Homo sapiens) (UniProt O14649)) of Cc1cc2oc(=O)cc(CN(C)Cc3ccc(OC(F)F)cc3)c2cc1Cl
-10.4 (active)

* * *

- System Under Test: Potassium channel subfamily K member 3 (Homo sapiens)
- Assay Text: human KCNK3 channel inhibitors, primary screen, CHO cells, FluxOR thallium flux, B-score (AID 602410);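 as to B-score: more negative B-score means stronger inhibition of thallium flux through KCNK3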
- Condition Notes: FluxOR fluorescence, at 10 µM; hits give low values
Among all 340,000 compounds or so, about 2,800 (0.82%) were called active. The full list was thinned out, with actives kept by preference.
Assay Readout: B-score

// below: answered compounds
> print(dat)
                                   compound     value
1        Cc1ccccc1NC(=S)NNC(=O)c1cccc(Br)c1  inactive
2  COC(=O)c1ccc(C)c(NC(=O)C2CC(=O)N(C3CCCC(C)C3C)C2)c1 (stereo not drawn)  inactive
3  CC(=O)NCCC(=O)Nc1cc(S(=O)(=O)N2CCCCC2)ccc1Oc1cccc(C)c1  inactive
4  C=CCn1c(SCc2cc(C(=O)OC)c(C)o2)nnc1-c1ccncc1  inactive

Item COc1cccc(C(=O)Nc2cc3c(cc2Br)OCCCO3)c1 : provide B-score
inactive

Given O=C(CCl)N(Cc1cccc([N+](=O)[O-])c1)c1cccc(Cl)c1 , respond with its B-score.
inactive

Write down B-score measured for item O=C(c1cc(-c2ccc(O)cc2)on1)N1CCCc2ccccc21
-9.08 (active)

* * *

- System Under Test: Potassium channel subfamily K member 3 (Homo sapiens)
- Assay Text: human KCNK3 channel inhibitors, primary screen, CHO cells, FluxOR thallium flux, B-score (AID 602410);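 as to B-score: more negative B-score means stronger inhibition of thallium flux through KCNK3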
- Condition Notes: FluxOR fluorescence, at 10 µM
The whole screen tested about 340,000 compounds, of which about 2,800 (0.82%) were called active.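 The calls were made as follows: active = B-score under library mean minus 4 SD, starting fluorescence ratio at most library mean plus 5 SD; inactive = the rest.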 This excerpt belongs to a sample that is enriched for actives.
Field 'call' accepts active, inactive

Previously resolved entries follow.
> print(dat)
                                   molecule                         system.under.test       cat
1  Cc1cc(C=O)c(C)n1-c1ccc(NC2CCCCC2)c([N+](=O)[O-])c1  Potassium channel subfamily K member 3 (Homo sapiens)    active
2  Cc1ccc(C(=O)N/C(=C\c2cn(S(=O)(=O)N(C)C)c3ccccc23)C(=O)N2CCCC2)cc1  Potassium channel subfamily K member 3 (Homo sapiens)  inactive
3  Cc1ccc(NC(=O)COc2ccc(/C=N\NC(=O)c3cccnc3)cc2)cc1C  Potassium channel subfamily K member 3 (Homo sapiens)  inactive
4  C=CCn1c(SCc2ccc(C(=O)NCCO)cc2)nc2ccccc2c1=O  Potassium channel subfamily K member 3 (Homo sapiens)  inactive
5  Cc1nc2ccccc2c(=O)n1NC(=O)c1ccc(Cl)c([N+](=O)[O-])c1  Potassium channel subfamily K member 3 (Homo sapiens)  inactive
6  COc1ccc(CNCCCn2cnc3c(OCc4ccccc4)ncnc32)cc1  Potassium channel subfamily K member 3 (Homo sapiens)  inactive

Per the records of this test, what outcome belongs to CC(C)Oc1ccc(C2NC(=O)NC2=O)cc1 (configuration not stated) ?
inactive

Hey, what did the test say about Cc1ccc(O)c(CCc2ccccc2)n1 ?
inactive

Each molecule tested received a call. Report the one for Cn1c(SCC(=O)N2CCCC2)nnc1-c1cccs1 .
inactive

* * *

- System Under Test: Potassium channel subfamily K member 3 (Homo sapiens) (UniProt O14649)
- Assay Text: human KCNK3 channel inhibitors, primary screen, CHO cells, FluxOR thallium flux, B-score (AID 602410);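 as to B-score: more negative B-score means stronger inhibition of thallium flux through KCNK3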
- Condition Notes: FluxOR fluorescence, at 10 µM
In all, about 340,000 compounds went through this assay and about 2,800 (0.82%) were called active.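 The calls were made as follows: active = B-score under library mean minus 4 SD, starting fluorescence ratio at most library mean plus 5 SD; inactive = the rest.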 The list comes from a sample in which actives are over-represented; it also holds close analogues and randomly drawn compounds.
Thanks in advance; please answer with one of these: active, inactive

State the result this test recorded for O=C1c2ccccc2C2=Nc3ccccc3SC(c3ccccc3F)C12 (stereo unspecified) .
active

What was the test verdict on COc1ccc(-c2cc(C(=O)N3CCN(Cc4ccc5c(c4)OCO5)CC3)on2)cc1OC ?
inactive

Would you mind telling me which call this test gave CC(C)n1c(O)c(N=Nc2ccccn2)c2ccccc21 ?
inactive

What was the test verdict on Cc1ccc(NC(=S)N2CCCC(c3ccccc3)=N2)cc1 ?
active

Which outcome was entered for the molecule CCCCCCC(O)(CCN1CCCCC1)c1ccccc1 (stereo unspecified) in this test?
inactive

What classification did CC(=O)N1CCCc2cc(S(=O)(=O)CCC(=O)N3CCN(c4ccccc4)CC3)ccc21 end up with in this test?
inactive

Write down the call the test reported for this molecule. Item: CCOc1ccc(S(=O)(=O)N(CC(=O)NCC(F)(F)F)Cc2ccco2)cc1
inactive

Which outcome was assigned to CCn1cc(C(=O)N2CCN(Cc3ccc4c(c3)OCO4)CC2)c2cc(OC)c(OC)cc2c1=O in this test?
inactive

Which outcome was assigned to COc1cc(C)c(Cl)cc1S(=O)(=O)n1ccnc1 in this test?
inactive

Per the assay record, what outcome was assigned to CSc1nnc2c(n1)OC(c1ccsc1)N(C(C)=O)c1ccccc1-2 (stereo unspecified) ?
active

Kindly provide the recorded test outcome for the following molecule: COc1cc(Cl)c(S(=O)(=O)N2CCN(Cc3ccc4c(c3)OCO4)CC2)cc1Cl
active

Source of measurements: PubChem BioAssay AID602410
